Reported values of LC50 (concentration killing 50% of cells) for individual entries
test: Antitumor activity against human renal cancer cells after 48 hrs by SRB assay; type: functional, Cancer cell lines; details: Homo sapiens, Cancer cell lines, 48 h
RECORDED METRIC: LC50 (concentration killing 50% of cells) (µM)

[
  {
    "SUBSTANCE SMILES": "Cc1cn2c(/C=C3/C(=O)Nc4ccccc43)c(-c3ccc(Cl)cc3)nc2s1",
    "QUANTITATIVE READOUT": 33.1
  },
  {
    "SUBSTANCE SMILES": "Cc1cn2c(/C=C3/C(=O)Nc4ccc(O)cc43)c(-c3ccc(Cl)cc3)nc2s1",
    "QUANTITATIVE READOUT": 87.1
  },
  {
    "SUBSTANCE SMILES": "Cc1nn2c(/C=C3/C(=O)Nc4ccccc43)c(-c3ccc(Cl)cc3)nc2s1",
    "QUANTITATIVE READOUT": 46.8
  },
  {
    "SUBSTANCE SMILES": "Cc1ccc(-c2nc3sc(C)cn3c2/C=C2/C(=O)Nc3ccc(Cl)cc32)cc1",
    "QUANTITATIVE READOUT": 64.6
  }
]

====

assay: Antitumor activity against human CNS cancer cells after 48 hrs by SRB assay; type: functional, Cancer cell lines; conditions: Homo sapiens, Cancer cell lines, 48 h
Reported values of LC50 for individual entries
RECORDED METRIC: LC50 (µM)

[
  {
    "SUBSTANCE SMILES": "Cc1cn2c(/C=C3/C(=O)Nc4ccccc43)c(-c3ccc(Cl)cc3)nc2s1",
    "SCALE UNIT": "µM",
    "QUANTITATIVE READOUT": 30.2
  },
  {
    "SUBSTANCE SMILES": "Cc1nn2c(/C=C3/C(=O)Nc4ccccc43)c(-c3ccc(Cl)cc3)nc2s1",
    "SCALE UNIT": "µM",
    "QUANTITATIVE READOUT": 38.9
  },
  {
    "SUBSTANCE SMILES": "Cc1cn2c(/C=C3/C(=O)N(C)c4ccc(Cl)cc43)c(C)nc2s1",
    "SCALE UNIT": "µM",
    "QUANTITATIVE READOUT": 79.4
  },
  {
    "SUBSTANCE SMILES": "Cc1ccc(-c2nc3sc(C)cn3c2/C=C2/C(=O)Nc3ccc(Cl)cc32)cc1",
    "SCALE UNIT": "µM",
    "QUANTITATIVE READOUT": 55
  },
  {
    "SUBSTANCE SMILES": "COc1ccc(OC)c(-c2nc3sccn3c2/C=C2/C(=O)N(C)c3ccccc32)c1",
    "SCALE UNIT": "µM",
    "QUANTITATIVE READOUT": 97.7
  },
  {
    "SUBSTANCE SMILES": "Cc1cn2c(/C=C3/C(=O)Nc4ccc(O)cc43)c(-c3ccc(Cl)cc3)nc2s1",
    "SCALE UNIT": "µM",
    "QUANTITATIVE READOUT": 81.3
  }
]

====

assay: Antitumor activity against human prostate cancer cells after 48 hrs by SRB assay; assay type: functional, Cancer cell lines
GI vs 20 µM: at or above is satisfied, below is not satisfied.

[
  {
    "COMPOUND": "COc1ccc2c(c1)/C(=C\\c1c(-c3ccc(C)cc3)nc3sc(C)cn13)C(=O)N2",
    "CATEGORY LABEL": "not satisfied"
  },
  {
    "COMPOUND": "COc1ccc(OC)c(-c2nc3sccn3c2/C=C2/C(=O)N(C)c3ccccc32)c1",
    "CATEGORY LABEL": "satisfied"
  },
  {
    "COMPOUND": "Cc1nn2c(/C=C3/C(=O)Nc4ccc(Cl)cc43)c(C)nc2s1",
    "CATEGORY LABEL": "satisfied"
  },
  {
    "COMPOUND": "Cc1nn2c(/C=C3/C(=O)Nc4ccccc43)c(-c3ccc(Cl)cc3)nc2s1",
    "CATEGORY LABEL": "not satisfied"
  },
  {
    "COMPOUND": "Cc1cn2c(/C=C3/C(=O)N(C)c4ccc(O)cc43)c(C)nc2s1",
    "CATEGORY LABEL": "not satisfied"
  },
  {
    "COMPOUND": "Cc1cn2c(/C=C3/C(=O)Nc4ccccc43)c(-c3ccc(Cl)cc3)nc2s1",
    "CATEGORY LABEL": "not satisfied"
  },
  {
    "COMPOUND": "CC[C@]1(O)C[C@H]2CN(CCc3c([nH]c4ccccc34)[C@@](C(=O)OC)(c3cc4c(cc3OC)N(C=O)[C@H]3[C@@](O)(C(=O)OC)[C@H](OC(C)=O)[C@]5(CC)C=CCN6CC[C@]43[C@@H]65)C2)C1.O=S(=O)(O)O [VINCRISTINE SULFATE]",
    "CATEGORY LABEL": "not satisfied"
  },
  {
    "COMPOUND": "Cc1cn2c(/C=C3/C(=O)Nc4ccc(F)cc43)c(C)nc2s1",
    "CATEGORY LABEL": "not satisfied"
  },
  {
    "COMPOUND": "Cc1ccc(-c2nc3sc(C)cn3c2/C=C2/C(=O)Nc3ccc(Cl)cc32)cc1",
    "CATEGORY LABEL": "satisfied"
  },
  {
    "COMPOUND": "COc1ccc2c(c1)/C(=C\\c1c(C)nc3sc(C)nn13)C(=O)N2",
    "CATEGORY LABEL": "not satisfied"
  },
  {
    "COMPOUND": "Cc1nn2c(/C=C3/C(=O)Nc4ccccc43)c(C)nc2s1",
    "CATEGORY LABEL": "satisfied"
  },
  {
    "COMPOUND": "Cc1cn2c(/C=C3/C(=O)Nc4ccc(O)cc43)c(-c3ccc(Cl)cc3)nc2s1",
    "CATEGORY LABEL": "not satisfied"
  },
  {
    "COMPOUND": "COc1ccc2c(c1)/C(=C\\c1c(-c3cc(OC)ccc3OC)nc3sc(C)cn13)C(=O)N2C",
    "CATEGORY LABEL": "satisfied"
  },
  {
    "COMPOUND": "Cc1cn2c(/C=C3/C(=O)N(C)c4ccc(Cl)cc43)c(C)nc2s1",
    "CATEGORY LABEL": "not satisfied"
  },
  {
    "COMPOUND": "Cc1cn2c(/C=C3/C(=O)N(C)c4ccccc43)c(C)nc2s1",
    "CATEGORY LABEL": "satisfied"
  }
]

====

assay: Antitumor activity against human Colon cancer cells after 48 hrs by SRB assay; type: functional, Cancer cell lines; details: Homo sapiens, Cancer cell lines, 48 h

[
  {
    "COMPOUND": "CC[C@]1(O)C[C@H]2CN(CCc3c([nH]c4ccccc34)[C@@](C(=O)OC)(c3cc4c(cc3OC)N(C=O)[C@H]3[C@@](O)(C(=O)OC)[C@H](OC(C)=O)[C@]5(CC)C=CCN6CC[C@]43[C@@H]65)C2)C1.O=S(=O)(O)O [VINCRISTINE SULFATE]",
    "GI50 [µM]": 0.1
  },
  {
    "COMPOUND": "Cc1cn2c(/C=C3/C(=O)Nc4ccc(O)cc43)c(-c3ccc(Cl)cc3)nc2s1",
    "GI50 [µM]": 24.5
  },
  {
    "COMPOUND": "COc1ccc(OC)c(-c2nc3sccn3c2/C=C2/C(=O)N(C)c3ccccc32)c1",
    "GI50 [µM]": 23.4
  },
  {
    "COMPOUND": "Cc1cn2c(/C=C3/C(=O)N(C)c4ccccc43)c(C)nc2s1",
    "GI50 [µM]": 4.57
  },
  {
    "COMPOUND": "Cc1nn2c(/C=C3/C(=O)Nc4ccccc43)c(-c3ccc(Cl)cc3)nc2s1",
    "GI50 [µM]": 18.6
  },
  {
    "COMPOUND": "Cc1cn2c(/C=C3/C(=O)Nc4ccccc43)c(-c3ccc(Cl)cc3)nc2s1",
    "GI50 [µM]": 10.2
  },
  {
    "COMPOUND": "Cc1ccc(-c2nc3sc(C)cn3c2/C=C2/C(=O)Nc3ccc(Cl)cc32)cc1",
    "GI50 [µM]": 18.6
  },
  {
    "COMPOUND": "Cc1cn2c(/C=C3/C(=O)N(C)c4ccc(Cl)cc43)c(C)nc2s1",
    "GI50 [µM]": 2.69
  },
  {
    "COMPOUND": "Cc1nn2c(/C=C3/C(=O)Nc4ccccc43)c(C)nc2s1",
    "GI50 [µM]": 9.33
  },
  {
    "COMPOUND": "Cc1cn2c(/C=C3/C(=O)Nc4ccc(F)cc43)c(C)nc2s1",
    "GI50 [µM]": 2.4
  },
  {
    "COMPOUND": "Cc1nn2c(/C=C3/C(=O)Nc4ccc(Cl)cc43)c(C)nc2s1",
    "GI50 [µM]": 14.1
  }
]
